- System: human DP2 (Homo sapiens (Human))
- Sequence (Q9Y5Y4 whole entry): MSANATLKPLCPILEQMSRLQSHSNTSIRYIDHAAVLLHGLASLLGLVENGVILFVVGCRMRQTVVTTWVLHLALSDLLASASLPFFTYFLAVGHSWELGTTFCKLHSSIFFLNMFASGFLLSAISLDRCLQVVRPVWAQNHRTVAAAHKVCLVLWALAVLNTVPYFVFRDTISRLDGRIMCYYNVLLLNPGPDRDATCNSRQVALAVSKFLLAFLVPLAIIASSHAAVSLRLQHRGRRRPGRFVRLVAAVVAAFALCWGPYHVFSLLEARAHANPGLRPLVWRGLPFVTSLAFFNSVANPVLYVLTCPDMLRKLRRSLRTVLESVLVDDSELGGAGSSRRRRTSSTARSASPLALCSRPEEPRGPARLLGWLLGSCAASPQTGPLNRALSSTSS
- Experiment: DP-2 Binding Inhibition Assay (3H-PGD2 binding to membranes of K562 cells expressing DP2)
- Measurement Parameters: read-out: EC50 (nM) 4% HSA; inhibition of 3H-PGD2 binding, 4% HSA
Quantity: EC50 (nM)

[
  {
    "Compound": "O=C(NCCc1ccc(Cl)cc1Cl)c1ccc(Oc2c(C3CC3)cc3c(c2C2CC2)OCCC3C(=O)O)cc1 (stereo not shown) [Example 40]",
    "Observed Value": 42.2
  }
]

(a) Cc1cccc(CCNC(=O)c2ccc(Oc3cc4c(cc3Cl)C(C(=O)O)CCO4)cc2)c1 (stereo not shown) [Example 146]
(b) COc1ccc(OC)c(CCNC(=O)c2ccc(Oc3cc4c(cc3Cl)C(C(=O)O)CCO4)cc2)c1 (stereo not shown) [Example 88]
Given the listed records, identify the one among a and b with higher EC50. Give the label under which the chosen entry appears.
a
(a: 608 nM, b: 203 nM)

(a) O=C(NCCc1ccccc1Cl)c1ccc(Oc2cc3c(cc2Cl)C(C(=O)O)CCO3)cc1 (stereo not shown) [Example 79]
(b) O=C(NCCc1ccccc1C(F)(F)F)c1ccc(Oc2cc3c(cc2Cl)C(C(=O)O)CCO3)cc1 (stereo not shown) [Example 152]
Which is greater in EC50, the first item a or the second item b ? Your choice should be expressed through its label.
b

----------
- System: human DP2 (Homo sapiens (Human))
- Experiment: DP-2 Binding Inhibition Assay (3H-PGD2 binding to membranes of K562 cells expressing DP2)
- Measurement Parameters: EC50 (nM) 0.1% BSA, inhibition of 3H-PGD2 binding, 0.1% BSA
Quantity: EC50 (nM)
Could you give me the number in nM? Just the number is fine.

Tell me measured EC50 for O=C(NCCc1ccc(Cl)cc1O)c1ccc(Oc2cc3c(cc2Cl)C(C(=O)O)CCO3)cc1 (stereo not shown) [Example 233] please.
11.1

----------
- System: human DP2 (Homo sapiens (Human))
- Experiment: DP-2 Binding Inhibition Assay (3H-PGD2 binding to membranes of K562 cells expressing DP2)
- Measurement Parameters: read-out: EC50 (nM) 4% HSA; inhibition of 3H-PGD2 binding, 4% HSA
- Method: DP-2 Binding Inhibition Assay The coding sequence of human DP2 was introduced into the human Leukemic cell line K562 by electroporation and stable clones expressing DP2 were obtained by limiting dilution followed by cell surface staining with a rat monoclonal antibody specific for human DP2. […] Radioactivity was measured by a scintillation counter (TopCount; PerkinElmer Life Sciences, Boston, Mass.). […]
Quantity: EC50 (nM)

// known answers, use as guide
[
  {
    "Compound": "Cc1ccc(SCCNC(=O)c2ccc(Oc3cc4c(cc3Cl)C(C(=O)O)CCO4)cc2)cc1 (stereo not shown) [Example 112]",
    "EC50 (nM)": 4190
  },
  {
    "Compound": "O=C(NCCc1ccc(Cl)cc1F)c1ccc(Oc2cc3c(cc2Cl)C(C(=O)O)CCO3)cc1 (stereo not shown) [Example 230]",
    "EC50 (nM)": 243
  },
  {
    "Compound": "O=C(NCCc1ccc(OC(F)F)cc1)c1ccc(Oc2cc3c(cc2Cl)C(C(=O)O)CCO3)cc1 (stereo not shown) [Example 223]",
    "EC50 (nM)": 209
  },
  {
    "Compound": "CC(C)(C)C1CCC(NC(=O)c2ccc(Oc3cc4c(cc3C#N)C(C(=O)O)CCO4)cc2)CC1 (stereo not shown) [Example 127]",
    "EC50 (nM)": 270
  },
  {
    "Compound": "O=C(NCCc1cc(Cl)ccc1Cl)c1ccc(Oc2cc3c(cc2Cl)C(C(=O)O)CCO3)cc1 (stereo not shown) [Example 103]",
    "EC50 (nM)": 392
  }
]

(1) O=C(NCCc1cccn1-c1ccc(C(F)(F)F)cc1)c1ccc(Oc2cc3c(cc2Cl)C(C(=O)O)CCO3)cc1 (stereo not shown) [Example 194]
(2) N#Cc1cc2c(cc1Oc1ccc(C(=O)NCCc3ccc(-c4ccccc4)cc3)cc1)OCCC2C(=O)O (stereo not shown) [Example 58]
(3) O=C(NCC(O)c1ccc(Cl)cc1)c1ccc(Oc2cc3c(cc2Cl)C(C(=O)O)CCO3)cc1 (stereo not shown) [Example 184]
Ranking field: EC50; order: falling. Lab note: record answer as labels in requested order.
1, 3, 2
(1: 3010 nM, 3: 824 nM, 2: 434 nM)

// data source = patent US9556139B2
